Known protein stability index of a selection of variants
B1: TIA1 (parent)
chain: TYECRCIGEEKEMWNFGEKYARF

- Variants of: B1
- Protocol Summary: protein stability index of a GFP-peptide fusion (GPS, HEK-293T) (PSI 1-6); higher = more stable;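 also: lentivirally expressed fusions sorted by FACS into six bins by GFP to DsRed ratio, PSI derived from sequencing read proportions per bin multiplied by bin number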
- Test Settings: c terminus: native
Readout: protein stability index

- I7F: 2.12
- F16L: 1.74
- C6L: 1.56
- C4Q: 1.67
- K11N: 2.69
- T1I: 2.19
- T1K: 1.83
- E3M: 2.49
- E9R: 1.88
- R5N: 2.86
- M13W: 3.09
- F16H: 2.26
- M13N: 2.31
- M13H: 2.24
- M13G: 2.61
- N15K: 1.86
- W14N: 2.1
- T1P: 3.63
- F23Y: 2.18
- K19R: 2.44
- E18T: 1.67
- E18Y: 1.89
